In this section, each of the compounds is paired with its reported pIC50.
Target Of Assay: PRMT7 (Homo sapiens, UniProt Q9NVM4)
Construct: PRMT7 (residues 2–692, C-terminus); with an N-terminal His-tag; His (N); purchased Reaction Biology Corporation
Sequence (Q9NVM4 2-692): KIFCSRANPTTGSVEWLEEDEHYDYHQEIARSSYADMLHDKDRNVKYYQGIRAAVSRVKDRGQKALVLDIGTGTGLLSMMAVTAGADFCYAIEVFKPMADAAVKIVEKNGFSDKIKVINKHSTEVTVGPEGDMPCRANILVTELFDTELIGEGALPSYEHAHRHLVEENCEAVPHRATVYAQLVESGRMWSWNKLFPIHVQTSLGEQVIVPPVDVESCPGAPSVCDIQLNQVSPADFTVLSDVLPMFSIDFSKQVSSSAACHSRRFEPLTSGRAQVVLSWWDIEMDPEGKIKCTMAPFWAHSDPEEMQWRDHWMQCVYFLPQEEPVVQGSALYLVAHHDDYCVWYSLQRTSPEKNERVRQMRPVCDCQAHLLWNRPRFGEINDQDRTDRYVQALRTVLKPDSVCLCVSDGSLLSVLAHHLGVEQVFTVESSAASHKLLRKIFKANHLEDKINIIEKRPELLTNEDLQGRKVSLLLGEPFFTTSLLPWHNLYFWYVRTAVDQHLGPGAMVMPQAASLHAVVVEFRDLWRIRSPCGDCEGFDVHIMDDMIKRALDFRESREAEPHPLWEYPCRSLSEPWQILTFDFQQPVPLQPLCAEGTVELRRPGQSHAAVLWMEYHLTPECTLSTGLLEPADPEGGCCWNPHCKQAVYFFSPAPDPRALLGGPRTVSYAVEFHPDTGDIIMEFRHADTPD
Assay Info: HotSpot radioisotope-based filter assay, PRMT7
Type: biochemical
Conditions: 5 μM GST-GAR, 3H-SAM 1 μM
pIC50: −log10 of the molar value.

Compound: COC(=O)c1cc(O)c2cc(NC(=O)NCCCNC(=N)NC[C@H]3O[C@@H](n4cnc5c(N)ncnc54)[C@H](O)[C@@H]3O)cc(C(F)(F)F)c2c1 [1j]
pIC50: 5.25
//
Compound: COC(=O)c1cc(O)c2cc(NC(=O)NCCNC(=N)NC[C@H]3O[C@@H](n4cnc5c(N)ncnc54)[C@H](O)[C@@H]3O)ccc2c1 [1i]
pIC50: 6.27

###

Target Of Assay: SMYD3/KMT3E (Homo sapiens)
Construct: the human recombinant SMYD3 (residues 2–428, C-terminus); C-terminal His-tag; His (C); purchased Reaction Biology Corporation
Sequence (Q9H7B4 2-428): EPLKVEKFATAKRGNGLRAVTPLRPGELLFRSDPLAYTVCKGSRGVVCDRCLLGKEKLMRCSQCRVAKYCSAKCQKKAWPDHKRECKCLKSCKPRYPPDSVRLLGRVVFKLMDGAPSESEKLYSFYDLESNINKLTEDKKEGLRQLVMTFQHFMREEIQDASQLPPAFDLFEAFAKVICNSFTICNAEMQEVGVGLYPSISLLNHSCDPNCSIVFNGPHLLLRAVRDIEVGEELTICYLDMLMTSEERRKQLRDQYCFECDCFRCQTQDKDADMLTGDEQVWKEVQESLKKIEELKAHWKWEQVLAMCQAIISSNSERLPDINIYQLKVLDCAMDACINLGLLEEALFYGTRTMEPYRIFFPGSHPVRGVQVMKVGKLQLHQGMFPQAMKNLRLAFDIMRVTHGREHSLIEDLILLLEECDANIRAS
Assay Info: HotSpot KMT activity assay, SMYD3
Assay type: biochemical
Description: […]
Reported Property: IC50 (µM)

Molecule: Nc1ncnc2c1ncn2[C@@H]1O[C@H](CSCC[C@H](N)C(=O)O)[C@@H](O)[C@H]1O [SAH, S-5′-adenosyl-L-homocysteine, reference compound]
Target Of Assay: SMYD3/KMT3E (Homo sapiens)
Reported Property: IC50
Endpoint Value: 15.9

###

Target Of Assay: GST-HsPRMT9 (Homo sapiens)
Construct: made in house; host or cells: E. coli
Sequence (Q6P2P2 whole entry): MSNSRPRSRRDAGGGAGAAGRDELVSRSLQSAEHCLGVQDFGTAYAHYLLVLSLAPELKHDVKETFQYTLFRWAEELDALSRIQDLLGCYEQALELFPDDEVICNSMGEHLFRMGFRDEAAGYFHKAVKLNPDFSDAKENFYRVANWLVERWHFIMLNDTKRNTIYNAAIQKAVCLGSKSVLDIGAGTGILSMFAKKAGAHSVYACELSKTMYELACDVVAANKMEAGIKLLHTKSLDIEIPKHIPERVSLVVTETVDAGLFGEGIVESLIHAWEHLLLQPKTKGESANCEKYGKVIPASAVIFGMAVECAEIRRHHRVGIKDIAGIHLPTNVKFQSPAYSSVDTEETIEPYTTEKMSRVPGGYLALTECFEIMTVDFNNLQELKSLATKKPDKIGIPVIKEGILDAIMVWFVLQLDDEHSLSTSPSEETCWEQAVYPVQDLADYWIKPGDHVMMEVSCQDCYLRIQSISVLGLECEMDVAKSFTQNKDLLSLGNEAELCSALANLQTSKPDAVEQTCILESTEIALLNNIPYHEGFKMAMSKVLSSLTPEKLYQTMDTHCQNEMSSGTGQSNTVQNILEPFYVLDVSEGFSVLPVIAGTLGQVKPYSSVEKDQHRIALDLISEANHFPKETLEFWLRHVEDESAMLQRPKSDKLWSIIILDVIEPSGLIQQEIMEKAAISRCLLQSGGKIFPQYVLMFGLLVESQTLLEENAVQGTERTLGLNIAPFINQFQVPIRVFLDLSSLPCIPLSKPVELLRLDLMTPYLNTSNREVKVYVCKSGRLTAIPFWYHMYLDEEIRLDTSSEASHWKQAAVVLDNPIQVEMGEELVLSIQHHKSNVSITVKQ
Assay Info: Radioisotope-based assay (SDS-PAGE, fluorography, densitometry), HsPRMT9
Assay type: biochemical
Conditions: 100 uM; substrate GST-SF3B2 (401–550), 37 °C; read-out: % HsPRMT9 residual activity
The label is Criterion met for remaining activity at 100 µM below 2% and Criterion not met for remaining activity at 100 µM equal to or exceeding 2%.

Compound: COC(=O)c1cc(O)c2cc(NC(=O)NCCCNC(=N)NC[C@H]3O[C@@H](n4cnc5c(N)ncnc54)[C@H](O)[C@@H]3O)ccc2c1 [1a]
Target Of Assay: GST-HsPRMT9 (Homo sapiens)
Group: Criterion met
--
Compound: CSC[C@H]1O[C@@H](n2cnc3c(N)ncnc32)[C@H](O)[C@@H]1O [MTA, 5′-Deoxy-5′-(methylthio)adenosine, reference compound]
Target Of Assay: GST-HsPRMT9 (Homo sapiens)
Group: Criterion not met
--
Compound: O=C(NC[C@H](O)CN1CCc2ccccc2C1)c1cc(NC2COC2)ncn1 [EPZ015666, reference compound]
Target Of Assay: GST-HsPRMT9 (Homo sapiens)
Group: Criterion not met
--
Compound: COC(=O)c1cc(O)c2cc(NC(=O)NCCCCCNC(=N)NC[C@H]3O[C@@H](n4cnc5c(N)ncnc54)[C@H](O)[C@@H]3O)ccc2c1 [1c]
Target Of Assay: GST-HsPRMT9 (Homo sapiens)
Group: Criterion met
--
Compound: COC(=O)c1cc(O)c2cc(NC(=O)NCCCCNC(=N)NC[C@H]3O[C@@H](n4cnc5c(N)ncnc54)[C@H](O)[C@@H]3O)ccc2c1 [1b]
Target Of Assay: GST-HsPRMT9 (Homo sapiens)
Group: Criterion met

###

Target Of Assay: CePRMT7 (Caenorhabditis elegans, UniProt Q9XW42)
Construct: made in house; host or cells: E. coli
Sequence (Q9XW42 whole entry): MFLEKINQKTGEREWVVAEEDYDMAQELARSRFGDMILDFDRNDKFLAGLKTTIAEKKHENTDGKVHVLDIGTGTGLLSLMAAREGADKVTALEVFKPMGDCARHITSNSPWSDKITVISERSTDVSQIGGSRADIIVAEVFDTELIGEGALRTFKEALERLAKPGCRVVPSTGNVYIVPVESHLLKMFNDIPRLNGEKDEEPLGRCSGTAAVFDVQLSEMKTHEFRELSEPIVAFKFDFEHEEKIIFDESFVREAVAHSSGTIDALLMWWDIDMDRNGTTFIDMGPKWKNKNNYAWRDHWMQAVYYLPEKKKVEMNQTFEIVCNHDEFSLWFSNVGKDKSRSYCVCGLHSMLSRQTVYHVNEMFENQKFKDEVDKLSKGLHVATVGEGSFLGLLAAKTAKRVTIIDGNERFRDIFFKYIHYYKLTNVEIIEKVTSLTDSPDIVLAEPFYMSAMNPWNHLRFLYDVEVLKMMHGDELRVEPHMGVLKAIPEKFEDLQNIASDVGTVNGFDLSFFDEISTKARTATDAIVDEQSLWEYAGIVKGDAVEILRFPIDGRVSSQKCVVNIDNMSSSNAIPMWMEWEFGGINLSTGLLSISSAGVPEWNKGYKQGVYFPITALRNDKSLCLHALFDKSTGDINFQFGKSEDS
Assay Info: Radioisotope-based assay (SDS-PAGE, fluorography, densitometry), CePRMT7
Assay type: biochemical
Conditions: 100 uM; substrate HsH2B, 15 °C; read-out: % CePRMT7 residual activity

Molecule: COC(=O)c1cc(O)c2cc(NC(=O)NCCCCCNC(=N)NC[C@H]3O[C@@H](n4cnc5c(N)ncnc54)[C@H](O)[C@@H]3O)ccc2c1 [1c]
Units Label: %
remaining activity at 100 µM: 26.1

Molecule: COC(=O)c1cc(O)c2cc(NC(=O)NCCCNC(=N)NC[C@H]3O[C@@H](n4cnc5c(N)ncnc54)[C@H](O)[C@@H]3O)ccc2c1 [1a]
Units Label: %
remaining activity at 100 µM: 19.6

Molecule: O=C(NC[C@H](O)CN1CCc2ccccc2C1)c1cc(NC2COC2)ncn1 [EPZ015666, reference compound]
Units Label: %
remaining activity at 100 µM: 131

Molecule: CSC[C@H]1O[C@@H](n2cnc3c(N)ncnc32)[C@H](O)[C@@H]1O [MTA, 5′-Deoxy-5′-(methylthio)adenosine, reference compound]
Units Label: %
remaining activity at 100 µM: 130

Molecule: COC(=O)c1cc(O)c2cc(NC(=O)NCCCCNC(=N)NC[C@H]3O[C@@H](n4cnc5c(N)ncnc54)[C@H](O)[C@@H]3O)ccc2c1 [1b]
Units Label: %
remaining activity at 100 µM: 34.8

###

Target Of Assay: PRMT5/MEP50 complex (Homo sapiens, UniProt O14744)
Construct: residues PRMT5 2–637, C-terminus, and MEP50 2–342, C-terminus; FLAG (N)
Sequence (O14744 2-637): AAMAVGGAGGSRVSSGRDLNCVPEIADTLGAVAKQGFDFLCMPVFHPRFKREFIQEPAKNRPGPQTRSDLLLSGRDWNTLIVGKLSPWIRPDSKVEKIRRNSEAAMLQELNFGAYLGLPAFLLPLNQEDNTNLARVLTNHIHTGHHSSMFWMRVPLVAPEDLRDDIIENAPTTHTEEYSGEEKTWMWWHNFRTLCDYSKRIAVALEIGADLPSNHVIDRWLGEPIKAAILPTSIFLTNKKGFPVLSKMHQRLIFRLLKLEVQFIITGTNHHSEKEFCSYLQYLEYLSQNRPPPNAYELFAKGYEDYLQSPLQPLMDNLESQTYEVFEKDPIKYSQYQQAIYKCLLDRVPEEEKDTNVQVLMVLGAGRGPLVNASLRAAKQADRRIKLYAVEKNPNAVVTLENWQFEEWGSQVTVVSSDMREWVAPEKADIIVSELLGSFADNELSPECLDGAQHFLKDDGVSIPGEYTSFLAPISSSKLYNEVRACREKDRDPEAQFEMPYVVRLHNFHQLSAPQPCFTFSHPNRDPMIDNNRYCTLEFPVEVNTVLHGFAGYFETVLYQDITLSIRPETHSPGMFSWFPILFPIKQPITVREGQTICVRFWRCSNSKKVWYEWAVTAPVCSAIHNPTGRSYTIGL
Sequence (Q9BQA1 2-342 partner limits assumed): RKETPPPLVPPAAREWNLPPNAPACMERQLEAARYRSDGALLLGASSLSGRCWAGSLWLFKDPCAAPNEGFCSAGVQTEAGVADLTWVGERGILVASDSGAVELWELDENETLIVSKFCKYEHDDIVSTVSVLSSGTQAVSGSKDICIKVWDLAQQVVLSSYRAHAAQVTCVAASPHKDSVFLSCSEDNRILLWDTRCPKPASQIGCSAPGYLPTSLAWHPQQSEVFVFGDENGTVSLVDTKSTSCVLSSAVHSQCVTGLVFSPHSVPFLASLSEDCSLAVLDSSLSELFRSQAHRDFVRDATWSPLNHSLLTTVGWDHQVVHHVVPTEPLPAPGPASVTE
Assay Info: HotSpot radioisotope-based filter assay, PRMT5
Conditions: 5 μM histone H2A, 3H-SAM 1 μM
Experimental: Then, ^3H-SAM (final concentration of 1 μM) was delivered into the reaction mixture to initiate the reaction. After incubation for 60 min at 30 °C, the reaction mixture was delivered to filter-paper for detection (as assessed by scintillation). Data were analyzed using Excel and GraphPad Prism 6.0 software (GraphPad Software Inc., San Diego, CA) for IC50 curve fits using sigmoidal dose vs response - variable slope (four parameters) equations.

Substance Smiles: COC(=O)c1cc(O)c2cc(NC(=O)NCCCNC(=N)NC[C@H]3O[C@@H](n4cnc5c(N)ncnc54)[C@H](O)[C@@H]3O)cc(C(F)(F)F)c2c1
IC50 (µM): 1.01

Substance Smiles: COC(=O)c1cc(O)c2cc(NC(=O)NCCNC(=N)NC[C@H]3O[C@@H](n4cnc5c(N)ncnc54)[C@H](O)[C@@H]3O)ccc2c1
IC50 (µM): 9.4

###

Target Of Assay: PRMT8 (Homo sapiens, UniProt Q9NR22)
Construct: (residues 61–394, C-terminus); with C- and N-terminal His-tags; His (N); His (C); purchased Reaction Biology Corporation
Sequence (Q9NR22 61-394): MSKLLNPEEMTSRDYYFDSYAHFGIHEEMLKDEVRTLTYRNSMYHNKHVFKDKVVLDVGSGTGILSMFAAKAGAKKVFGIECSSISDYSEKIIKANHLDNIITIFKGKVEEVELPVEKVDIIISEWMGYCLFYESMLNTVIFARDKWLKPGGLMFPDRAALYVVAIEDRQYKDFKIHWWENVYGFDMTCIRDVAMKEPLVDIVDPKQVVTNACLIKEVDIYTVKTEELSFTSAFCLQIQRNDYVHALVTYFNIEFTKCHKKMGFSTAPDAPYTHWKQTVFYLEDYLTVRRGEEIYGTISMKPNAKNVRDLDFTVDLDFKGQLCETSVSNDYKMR
Assay Info: HotSpot radioisotope-based filter assay, PRMT8
Type: biochemical
Conditions: Figure 2; from IC50 values of ref 31
In this section, each of the compounds is paired with its reported selectivity index for PRMT7 over PRMT8.
Reported Property: selectivity index for PRMT7 over PRMT8

Substance Smiles: COC(=O)c1cc(O)c2cc(NC(=O)NCCCCNC(=N)NCC[C@H]3O[C@@H](n4cnc5c(N)ncnc54)[C@H](O)[C@@H]3O)ccc2c1
Endpoint Value: 27 fold

Substance Smiles: COC(=O)c1cc(O)c2cc(NC(=O)NCCCCNC(=N)NCCC[C@H]3O[C@@H](n4cnc5c(N)ncnc54)[C@H](O)[C@@H]3O)ccc2c1
Endpoint Value: 0.3 fold

Substance Smiles: COC(=O)c1cc(O)c2cc(NC(=O)NCCCCCCCNC(=N)NC[C@H]3O[C@@H](n4cnc5c(N)ncnc54)[C@H](O)[C@@H]3O)ccc2c1
Endpoint Value: 9 fold

Substance Smiles: COC(=O)c1cc(O)c2cc(NC(=O)NCCCCCNC(=N)NC[C@H]3O[C@@H](n4cnc5c(N)ncnc54)[C@H](O)[C@@H]3O)ccc2c1
Endpoint Value: 27 fold

###

Target Of Assay: PRMT5/MEP50 complex (Homo sapiens, UniProt O14744)
Construct: residues PRMT5 2–637, C-terminus, and MEP50 2–342, C-terminus; FLAG (N); purchased Reaction Biology Corporation
Assay Info: HotSpot radioisotope-based filter assay, PRMT5
Format: biochemical
Conditions: Figure 2; from IC50 values of ref 31
In this section, each of the compounds is paired with its reported selectivity index for PRMT7 over PRMT5.

Compound: COC(=O)c1cc(O)c2cc(NC(=O)NCCCCCCCNC(=N)NC[C@H]3O[C@@H](n4cnc5c(N)ncnc54)[C@H](O)[C@@H]3O)ccc2c1 [1e]
Units Label: fold
selectivity index for PRMT7 over PRMT5: 5

Compound: COC(=O)c1cc(O)c2cc(NC(=O)NCCCCNC(=N)NCCC[C@H]3O[C@@H](n4cnc5c(N)ncnc54)[C@H](O)[C@@H]3O)ccc2c1 [1g]
Units Label: fold
selectivity index for PRMT7 over PRMT5: 0.17

Compound: COC(=O)c1cc(O)c2cc(NC(=O)NCCCCCNC(=N)NC[C@H]3O[C@@H](n4cnc5c(N)ncnc54)[C@H](O)[C@@H]3O)ccc2c1 [1c]
Units Label: fold
selectivity index for PRMT7 over PRMT5: 234

Compound: COC(=O)c1cc(O)c2cc(NC(=O)NCCCCNC(=N)NCC[C@H]3O[C@@H](n4cnc5c(N)ncnc54)[C@H](O)[C@@H]3O)ccc2c1 [1f]
Units Label: fold
selectivity index for PRMT7 over PRMT5: 0.51

###

Target Of Assay: human recombinant PRMT9 (Homo sapiens, UniProt Q6P2P2)
Construct: human recombinant PRMT9 (2–845; N-terminal FLAG-tag, C-terminal His6-tag); FLAG (N); His6 (C)
Sequence (Q6P2P2 2-845): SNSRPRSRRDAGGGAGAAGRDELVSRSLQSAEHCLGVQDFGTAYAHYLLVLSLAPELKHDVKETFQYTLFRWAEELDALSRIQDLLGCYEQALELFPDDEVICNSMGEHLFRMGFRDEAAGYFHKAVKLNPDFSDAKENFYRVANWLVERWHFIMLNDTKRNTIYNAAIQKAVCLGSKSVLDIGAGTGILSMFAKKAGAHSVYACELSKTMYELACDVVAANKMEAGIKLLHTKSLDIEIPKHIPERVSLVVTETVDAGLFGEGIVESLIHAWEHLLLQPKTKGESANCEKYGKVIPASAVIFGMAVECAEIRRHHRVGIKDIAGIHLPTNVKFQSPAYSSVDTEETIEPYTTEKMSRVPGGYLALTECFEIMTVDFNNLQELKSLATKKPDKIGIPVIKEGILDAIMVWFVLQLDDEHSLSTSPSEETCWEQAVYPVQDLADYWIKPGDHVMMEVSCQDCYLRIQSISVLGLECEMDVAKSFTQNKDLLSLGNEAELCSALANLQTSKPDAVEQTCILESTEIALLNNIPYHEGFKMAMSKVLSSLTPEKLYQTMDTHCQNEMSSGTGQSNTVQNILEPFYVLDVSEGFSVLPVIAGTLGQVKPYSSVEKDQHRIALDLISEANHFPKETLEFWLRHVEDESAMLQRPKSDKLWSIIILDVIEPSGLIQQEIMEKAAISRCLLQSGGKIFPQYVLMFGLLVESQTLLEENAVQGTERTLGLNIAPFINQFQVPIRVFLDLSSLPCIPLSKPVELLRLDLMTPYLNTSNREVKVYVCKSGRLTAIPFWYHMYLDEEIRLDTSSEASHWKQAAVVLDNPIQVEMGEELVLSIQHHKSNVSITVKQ
Assay Info: AlphaLISA PRMT9 activity assay (modified BPS kit, biotinylated SF3B2 peptide)
Conditions: PRMT9 0.105 μM, biotinylated SF3B2 (500–519) peptide 100 nM, SAM 25 μM
pIC50: −log10 of the molar value.
In this section, each of the compounds is paired with its reported pIC50.

Compound: COC(=O)c1cc(O)c2cc(NC(=O)NCCCCNC(=N)NCC[C@H]3O[C@@H](n4cnc5c(N)ncnc54)[C@H](O)[C@@H]3O)ccc2c1 [1f]
pIC50: 5.92
--
Compound: COC(=O)c1cc(O)c2cc(NC(=O)NCCCCCCCNC(=N)NC[C@H]3O[C@@H](n4cnc5c(N)ncnc54)[C@H](O)[C@@H]3O)ccc2c1 [1e]
pIC50: 5.89
--
Compound: COC(=O)c1cc(O)c2cc(NC(=O)NCCNC(=N)NC[C@H]3O[C@@H](n4cnc5c(N)ncnc54)[C@H](O)[C@@H]3O)ccc2c1 [1i]
pIC50: 5.61
